assayOverview: Cellular cytotoxicity, microscopic evaluation and MTS assay
Type: cell-based, human
conditionDetails: human, PHA-stimulated PBMCs, MTS, read-out: Toxicity CC50 PMBCs

molecule | CC50 at 48 h
c1cc(CN2CCCNCCNCCCNCC2)ccc1CN1CCCNCCNCCCNCC1 [AMD3100, reference compound] | ≥ 100 µM

* * *

measuredTarget: CCR5 (Homo sapiens)
Construct: endogenous in cells
Sequence (P51681 whole entry): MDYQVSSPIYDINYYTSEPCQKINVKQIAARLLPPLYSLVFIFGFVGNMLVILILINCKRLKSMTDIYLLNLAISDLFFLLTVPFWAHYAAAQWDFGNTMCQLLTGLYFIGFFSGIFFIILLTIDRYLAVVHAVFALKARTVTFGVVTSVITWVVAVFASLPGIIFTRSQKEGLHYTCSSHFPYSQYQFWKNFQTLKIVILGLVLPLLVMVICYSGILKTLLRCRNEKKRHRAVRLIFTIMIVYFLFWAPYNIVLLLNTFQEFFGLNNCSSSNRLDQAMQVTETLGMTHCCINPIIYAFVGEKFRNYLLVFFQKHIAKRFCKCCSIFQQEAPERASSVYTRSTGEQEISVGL
assayOverview: CCL5^AF647 chemokine binding inhibition assay in PBMCs
conditionDetails: AF647-labelled CCL5 in PBMCs; mean ± SEM; read-out: Competition Binding Assay IC50 CCL5
Protocol: Human PBMCs were washed once with assay buffer (Hanks’ balanced salt solution with 20 mM HEPES buffer and 0.2% bovine serum albumin, pH 7.4) and then incubated for 15 min at room temperature with the sample diluted in assay buffer at the indicated concentrations. […] Thereafter, the cells were washed twice in assay buffer, fixed in 1% paraformaldehyde in PBS, and analysed on the FL4 channel of a FACSCalibur flow cytometer equipped with a 635 nm red diode laser (Becton Dickinson, San Jose, CA, USA). […]
pIC50: −log10 of the molar value.

molecule | pIC50
c1cc(CN2CCCNCCNCCCNCC2)ccc1CN1CCCNCCNCCCNCC1 [AMD3100, reference compound] | < 6.00

* * *

System: PHA-stimulated PBMCs
assayOverview: Cellular cytotoxicity, microscopic evaluation and MTS assay
Format: cell-based, human
conditionDetails: 48 h, MTS, read-out: Toxicity CC50 PMBCs

compound | CC50
c1cc(CN2CCCNCCNCCCNCC2)ccc1CN1CCCNCCNCCCNCC1 [AMD3100, reference compound] | > 100 µM
[Cu+2].[Cu+2].c1cc(CN2CCCNCCNCCCNCC2)ccc1CN1CCCNCCNCCCNCC1 | ≥ 100 µM
